Data origin: paper PMC2756588

# assay.target: GST
# assay.explanation: SPOT array
# assay.context: median of control spots 978
readout.kind: SPOT intensity
Returns: the value as a bare number; no unit string appended.

Examples from the recorded data:
binder: SRYRRPLTLLLLKPF
SPOT intensity: 0
--
binder: IRMPSNPALPKKLLN
SPOT intensity: 0
--
binder: MSPLGAPPPPPHKDH
SPOT intensity: 1

Consider now this further binder.
### Prompt SPOT intensity for NPTKSPPPPPSPSTM ?
### Response 1
